- Tested on: PC-3 prostate
- Method: NCI tumour cell line growth inhibition, 48 h
# TGI per record follows
Measure name: TGI

Compound	Test value
COc1ccc(/C=C/C(=O)OC2CC34CCNC35CC(OC5(OC)C2OC)c2ccc(OC)c(O)c24)cc1O (stereo not drawn)	> 100 µM
Cc1cc2c3c(nc4ccccc42)C(=O)c2cccnc2-c3n1	3.04 µM
CC1=C(C)C2(C#N)C(=O)N3C(=NC(c4ccco4)NC3c3ccco3)C2(C#N)C(c2ccco2)N1 (stereo not drawn)	> 100 µM
CCN(CC)CCOc1ccc(/C(=C(\C)Cc2ccc(OC)cc2)c2ccc(O)cc2)cc1	3.26 µM
Cc1ccc(NC(=O)CC(=O)N2N=C(N(c3ccccc3)c3ccccc3)CC2c2ccccc2)cc1 (stereo not drawn)	> 100 µM
N#CC(Cl)CS(=O)(=O)c1ccccc1 (stereo not drawn)	31.6 µM
CCCCCCCCCCCCCCCC(=O)OCC1OC(OCCCC)[C@H](O[C@@H]2OC(C)C(OC(=O)CCC)C(O)C2O)C(O)C1O (stereo partly drawn)	30.5 µM
CN1C(=O)[C@@H](CC2CCCC2)N(C2CCCC2)c2nc(Nc3cc(Cl)c(O)c(Cl)c3)ncc21	> 100 µM
CC[C@@]1(O)C(=O)OCc2c1cc1n(c2=O)Cc2cc3cc(O)ccc3nc2-1	> 100 µM
CCN1CCCCCCCCCC(=N/O)/C(=N\O)C1	> 100 µM
NC(=S)NN=Cc1ccccc1OCc1cccc(COc2ccccc2C=NNC(N)=S)n1	> 100 µM
Cc1cc2c(C(C)C)c(O)c(O)c(/C=N/O)c2c(O)c1-c1c(C)cc2c(C(C)C)c(O)c(O)c(/C=N/O)c2c1O	13.5 µM
COC(=O)C(Cc1c(-c2[nH]c3ccccc3c2CC(NC(C)=O)C(=O)OC)[nH]c2ccccc12)NC(C)=O (stereo not drawn)	> 100 µM
C#CC(O)/C=C/C(O)CCCC(O)CC#CC(O)C#CCCCCC(O)/C=C/CCCCCC(=O)CCCCCCCCCCCCCC(O)C(O)C#CC(=O)O (stereo not drawn)	> 25 µM
COC(=O)NC1=Nc2ccccc2C(=O)NN1	> 100 µM
CC[C@]1(O)CC2CN(CCc3c([nH]c4ccccc34)C(C(=O)OC)(c3cc4c(cc3OC)N(C=O)[C@H]3[C@@](O)(C(=O)OC)[C@H](OC(C)=O)[C@]5(CC)[C@@H]6C[C@@H]6CN6CC[C@]43[C@@H]65)C2)C1 (stereo partly drawn)	> 12.3 µM
Nc1ccc(C2(c3ccc(N)cc3)C3CC4CC(C3)CC2C4)cc1	29.3 µM
COc1ccc(-c2cc(-c3ccc(Cl)cc3)nc(SCCCC(=O)NO)n2)cc1OC	3.03 µM

====

- System: BT-549 breast
- Method: NCI tumour cell line growth inhibition, 48 h
Measure name: TGI

Molecule	Test value
O=C(N[C@H](CO)[C@H](O)c1ccc([N+](=O)[O-])cc1)C(Cl)Cl	> 100 µM
CC(=O)Nn1c(Cc2ccc(Cl)cc2)nn(C)c1=O	> 100 µM
CC(=O)O[C@H]1[C@@H](OC2CCCC2(c2ccccc2)c2ccccc2)O[N+]([O-])=C[C@@H]1c1ccccc1 (stereo not given in full)	17.5 µM
Cc1ccc(N=NC(=O)NNc2ccc(C)cc2Br)c(Br)c1	89.3 µM
COC(=O)c1cc(C#N)[nH]c1-c1ccc(Br)s1	22.8 µM
O=c1nc(N2CCCCC2)sc2[nH]c3ccccc3c12	> 100 µM
COC(=O)CSc1cc(Cl)c(C)cc1S(=O)(=O)Nc1n[nH]c(N)n1	> 10 µM
CC1(C)CCC2(C(=O)O)C(O)CC3(C)C(=CCC4C5(C)CCC(OC6OCC(O)C(O)C6OC6OCC(O)C(O)C6OC6OCC(O)C(OC7OC(CO)C(O)C(O)C7O)C6O)C(C)(C)C5CCC43C)C2C1 (stereo not given)	86.4 µM
Cn1cc(Nc2nccc(-c3ccc4c(c3)CN(C3COC3)CC[C@H]4NC(=O)c3cn(C(C)(C)C)nn3)n2)cn1	> 100 µM
CC(=O)OC1CCn2c1nc1c2C(=O)C=C(N2CC2)C1=O (stereo not given)	2.54 µM
CC(=O)n1nc(-c2[nH]c(C)c(-c3nn(C(C)=O)c(=S)o3)c2C)oc1=S	> 100 µM
O=C1CC(=O)NC(=NN2C(=O)CSC2c2ccc(Cl)cc2)N1 (stereo not given)	> 100 µM
CCc1cccc(C(C)C)c1NC(=O)C(=O)Nn1c(=S)[nH]c2ccccc2c1=O	> 100 µM
Cc1c(CN2CCOCC2)c(CN2CCOCC2)c(C)n1-c1ccc(Cl)cn1	> 100 µM
COC(=O)NCCc1[nH]nc2c1C(=O)C=C(Nc1ccccc1OC)C2=O	> 100 µM
N=C1C(c2nc3ccccc3c(=O)[nH]2)=C(O)CN1c1cccc(Cl)c1	> 100 µM
NC(=O)NC(=O)Nc1ccc(Br)cc1	> 100 µM
CC(C)(Oc1cccc(N2CCC[C@@H](C(=O)N(Cc3ccc(-c4cn[nH]c4)cc3)C3CC3)C2)c1)C(=O)N1CCNCC1	26.6 µM
CC(NC1=NCCO1)c1ccsc1 (stereo not given)	> 100 µM
Nc1nc(N)c2c(Cl)c(CNc3ccc(Cl)c(Cl)c3)ccc2n1	19.1 µM
